assay: Human HepG2 cell viability assay in 384 well format; assay type: toxicity, cell-based; set-up: dose 125 nL, time 70.5 hour; concentration not given beside the values; details: HepG2 cells, read-out: Inhibition
Listed compounds paired with reported cytotoxicity at 70.5 h
assayEndpoint: cytotoxicity at 70.5 h (%)

* Cc1cc(C)c(CNC(=O)C(C)Oc2cccc(C#N)c2)c(=O)[nH]1 (stereo not drawn) | -11.6
* CC(Cn1cccn1)NCC(=O)N(C)Cc1ccsc1 (stereo not drawn) | 35.4
* Cc1cc(C2CCCN2C(=O)NCc2cccnc2OC(C)C)on1 (stereo not drawn) | -9.53
* Cc1cn(CC(=O)NC2CCN(CC3CC3)CC2)c2ccccc12 | -9.9
* CCC(c1ccc(F)cc1)N1CCn2c(CO)nnc2C1 (stereo not drawn) | -8.02
* COc1ccc(-c2nnc(C(C)N3CCC4(CC3)OCCO4)o2)cc1 (stereo not drawn) | -10.3
* COCC(=O)N1CCCC1(C)c1nc(C)cc(O)n1 (stereo not drawn) | -10.5
* CC(C)=CCn1ncc(N2CCOCC2)cc1=O | -1.75
* Cc1occc1CNC(=O)C1(C)CCCN1C(=O)c1ccccc1 (stereo not drawn) | 2.74
* Cc1c(NCCO)cccc1OC1CCCC1 | -2.5
* O=C(C1CCOCC1)N1C[C@@H]2[C@@H](C1)OCC(=O)N2CC1CC1 | -6.04
* OCCN1CCN(CC(O)c2ccc(C(F)(F)F)cc2)CC1 (stereo not drawn) | 33.3
* Cc1cc(C(=O)N2CCCC(c3noc(C)n3)C2)[nH]n1 (stereo not drawn) | 34.4
* CCn1c(CN(C)Cc2cnc(C)s2)nc2cc(F)ccc21 | 10.8
* CN(C)c1cc2c(nn1)CCN(C(=O)C1Cc3ccccc3S1)C2 (stereo not drawn) | -8.43
* CCOC1CC2(CCN(C(=O)COC)CC2)c2cc(F)ccc21 (stereo not drawn) | 1.7
* Clc1ccc(CN2CCCC(Cn3cncn3)C2)c2ncccc12 (stereo not drawn) | -8.25
* CN(C)c1cncc(C2CCN(CC(N)=O)CC2)n1 | -0.457
* COCC1CN(C(=O)c2ccoc2)Cc2cnn(CC3CCOCC3)c21 (stereo not drawn) | -9.06
* Cc1ccc(CN2CCC3(CC2)CC(CC(=O)NC(C)C)CO3)s1 (stereo not drawn) | -7.06
* Cc1nccn1CCC1CCN(C2CCC3(CCNCC3)CC2)CC1 | 13.6
* CCn1nc(C)c2nc(C(C)C)nc(N3CCCCC3)c21 | -11.3
* Cc1nc(CN2C(=O)CC[C@@H]3[C@H]2CCN3C(=O)NC2CC2)cs1 | 21.8
* CC(=O)N(C)CC(=O)NCC1CCN(c2cc(Cl)ccc2C)C1 (stereo not drawn) | 2.11
* CC(=O)c1cn(CCC(=O)NCCCC(=O)O)c2ccccc12 | -12.2
* CC(C)(C)n1cc(C(=O)N2CCN(Cc3ccsc3)CC2)cn1 | -0.132
* Cc1n[nH]c(C)c1C1CCCN1C(=O)c1cc(Br)c[nH]1 (stereo not drawn) | 12.3
* CS(=O)(=O)N1CCOCC2(CN(Cc3ccccn3)CCO2)C1 (stereo not drawn) | -5.98

----------
test: Human HepG2 cell viability assay in 384 well format; type: toxicity, cell-based; set-up: dose 125 nL, time 70.5 hour; concentration not given beside the values; conditions: HepG2 cells, read-out: Inhibition
Reported cytotoxicity at 70.5 h by item:
assayEndpoint: cytotoxicity at 70.5 h (%)

• COCCOCC(=O)NCc1ccc(N(C)C)nc1 = -5.23
• Cc1nc2cc(=O)[nH]n2c(C)c1CNC(=O)C(C)Cc1ccccc1 (stereo not drawn) = 3.77
• COc1ccc2cc(NC(=O)CCNc3ncccn3)cnc2c1 = -29.1
• COc1nc2c(cc1C(=O)N(C)Cc1n[nH]c3c1CCCC3)CCC2 = -6.28
• CCCS(=O)(=O)NC1CCc2c(ccc(=O)n2CC2CC2)C1 (stereo not drawn) = -8.69
• Cc1ccc(CN2CCC3(CC2)CN(c2cnn(C)c2)C(=O)CO3)o1 = -9.82
• COc1ccccc1CN(Cc1cccc(C)c1)C(=O)[C@@H](N)CC(=O)O = 8.65
• Cc1ccc(N2CCO[C@H]3CN(Cc4ccc(F)cc4)C[C@H]32)nn1 = -7.45
